tested on: SF-268; assay: NCI tumour cell line growth inhibition, 48 h
Activity calls are given as the source filed them. No stated cut-off is given here; in the data, active = GI50 up to about 1.1 µM and inactive = higher.
Lab note: assign the record to one of true (1) for active, false (0) for inactive

Observe how each entry below is paired with its result.
O=C1OC(/C=C/c2ccccc2)C(=O)C1=O (configuration not stated); false (0)
COC(=O)C1=NN2c3ccccc3CN([C@@H](C)c3ccccc3)C(=O)[C@@H]2C1; false (0)
CCNC(=O)N(CC)CN(CC)C(=O)NCC; false (0)
CC(=O)C1=C(O)/C(=C\c2ccco2)OC1=O; false (0)
Cn1c2ccc(Cl)cc2c2ccc3c(c21)C(=O)C=CC3=O; false (0)
Cc1ccsc1/C(S)=N\c1ccc(Cl)c(/C=N/OC(C)(C)C)c1; false (0)
O=C1Nc2ccccc2/C1=N/NC(=S)N1CCCCCC1; true (1)
COc1nc(C#CC2(O)CCCCC2)nc(OC)n1; false (0)
ClCc1c(-c2ccccc2)nn(-c2ccccc2)c1CCl; false (0)
CN1C(=O)N(C)C(O)C(Cl)(Br)C1=O (configuration not stated); false (0)

Please share the test call associated with CCCCCCCCCCCCCS(=O)(=O)NCC(N)=O .
false (0)

// return assay outcome for COCCCN(Cc1cc(OC)c(OC)c(OC)c1)C(=S)Nc1cccc(Cl)c1
false (0)
